# Test system: MRC5
# testName: Cytotoxicity against human MRC5 cells after 3 days by resazurin-based fluorescence assay
# Format: cell-based
# conditionNotes: MRC5, 72 h
experimentalEndpoint: pEC50
For clarity, pEC50 is expressed as the negative log10 of concentration in mol/L.

Example compounds with recorded pEC50:
>>> print(df.to_string())
                                smilesinput  targetundertest  experimentalendpoint  recordedresult
0            O=C1C=CC(O)(c2nc3ccccc3s2)C=C1             MRC5                 pEC50            6.74
1  O=C1C=CC(O)(c2cc3ccccc3n2S(=O)(=O)c2ccccc2)C=C1             MRC5                 pEC50            6.96
2                 O=C1C=CC(O)(c2ccccc2)C=C1             MRC5                 pEC50            5.77

Query block: Entry `O=C1C=CC(O)(c2cc3ccc(F)cc3n2S(=O)(=O)c2ccccc2)C=C1` : reported pEC50 = ?
Result block: 6.77

Query block: Form field: reported pEC50 of `COc1ccc(-n2cc(C3(O)C=CC(=O)C=C3)nn2)cc1`
Result block: 6.51

###

# testName: Selectivity ratio of EC50 for human MRC5 cells to EC50 for blood stream form of Trypanosoma brucei
# Type: ADME, cell-based
# conditionNotes: read-out: Ratio EC50
experimentalEndpoint: selectivity ratio
Write the number on its own, no unit after it.

In [3]: df
Out[3]:
                 smilesinput  experimentalendpoint  recordedresult
0  O=C1C=CC(O)(c2ccccc2)C=C1     selectivity ratio               2
1       C#CC1(O)C=CC(=O)C=C1     selectivity ratio               1

Below: the item to evaluate.
Query block: State the recorded selectivity ratio for this entry: `O=C1C=CC(O)(c2cc3ccccc3n2S(=O)(=O)c2ccc(CCCN3CCOCC3)cc2)C=C1`
Result block: 3

###

# Tested on: MRC5
# testName: Cytotoxicity against human MRC5 cells after 3 days by resazurin-based fluorescence assay
# Format: cell-based
# conditionNotes: MRC5, 72 h
pEC50: −log10 of the molar value.
experimentalEndpoint: pEC50

Worked set:
>>> df
                                smilesinput  experimentalendpoint  recordedresult
0                 Oc1ccc(-c2nc3ccccc3s2)cc1                 pEC50          < 4.30
1  Nc1nc(N)nc(-n2cc(C3(O)C=CC(=O)C=C3)nn2)n1                 pEC50          < 4.30

Query block: Value lookup for pEC50; key = `N=C(N)c1ccc(-n2cc(C3(O)C=CC(=O)C=C3)nn2)cc1`
Result block: < 4.30
